Data credit: patent US20260263521A1

- Assayed target: T1, cynomolgus CD200R1 with dual His-tags (cynomolgus, UniProt G7NZT0 25-266)
- T1 construct: Captured on the SPR chip by an anti-histidine antibody; also called CCD200R1-his; cCD200R1-his; not shown: dual His-tags
- T1 sequence: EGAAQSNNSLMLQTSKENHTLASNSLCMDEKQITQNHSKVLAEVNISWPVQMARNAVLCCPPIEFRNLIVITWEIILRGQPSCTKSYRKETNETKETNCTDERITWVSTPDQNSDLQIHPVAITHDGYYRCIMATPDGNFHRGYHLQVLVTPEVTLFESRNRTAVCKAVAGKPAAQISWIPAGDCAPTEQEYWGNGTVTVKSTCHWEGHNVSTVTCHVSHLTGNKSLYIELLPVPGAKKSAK
- Protocol description: SPR (Biacore CM5), His-tagged antigen captured by anti-histidine antibody, antibody as analyte, 1:1 Langmuir fit
We begin with a simple list: items and their reported kon.
Form entry: value (M⁻¹ s⁻¹) — number only.

Please review the entries below; each comes with its answer.
{"Binder": "P001009 (IgG) (antibody, V domains shown, also called P001009 WT; P001009 wt) VH: EVQLLESGGGLVQPGGSLRLSCAASGFTFSSYDMSWVRQAPGKGLEWVSWISHGGGSIYYADSVKGRFTISRDNSKNTLYLQMNSLRAEDTAVYYCARDAPAYSAPLFDYWGQGTLVTVSS VL: QSVLTQPPSASGTPGQRVTISCSGSSSNIGNNAVNWYQQLPGTAPKLLIYYDSNRPSGVPDRFSGSKSGTSASLAISGLRSEDEADYYCAAWDDSLSGYVFGGGTKLTVL", "Reported value": "5.63e+06"}
{"Binder": "P001009v1 (antibody, V domains shown, P001009 with LC S52K and S94R (Kabat); also called P019001v1; P0001009v1) VH: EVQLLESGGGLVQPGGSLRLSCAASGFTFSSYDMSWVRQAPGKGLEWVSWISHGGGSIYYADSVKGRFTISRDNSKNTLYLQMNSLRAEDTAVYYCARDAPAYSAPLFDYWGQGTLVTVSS VL: QSVLTQPPSASGTPGQRVTISCSGSSSNIGNNAVNWYQQLPGTAPKLLIYYDKNRPSGVPDRFSGSKSGTSASLAISGLRSEDEADYYCAAWDDRLSGYVFGGGTKLTVL", "Reported value": "5.23e+06"}
{"Binder": "P001009v4 (antibody, V domains shown, P001009 with LC N31K (Kabat); also called P019001v4) VH: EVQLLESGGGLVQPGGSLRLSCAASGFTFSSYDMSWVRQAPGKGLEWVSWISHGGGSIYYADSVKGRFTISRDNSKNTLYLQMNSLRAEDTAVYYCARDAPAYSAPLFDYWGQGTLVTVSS VL: QSVLTQPPSASGTPGQRVTISCSGSSSNIGNKAVNWYQQLPGTAPKLLIYYDSNRPSGVPDRFSGSKSGTSASLAISGLRSEDEADYYCAAWDDSLSGYVFGGGTKLTVL", "Reported value": "3.71e+06"}

Problem: Request the reported kon associated with P001009v2 (antibody, V domains shown, P001009 with LC S52K and D93R (Kabat); also called P019001v2) VH: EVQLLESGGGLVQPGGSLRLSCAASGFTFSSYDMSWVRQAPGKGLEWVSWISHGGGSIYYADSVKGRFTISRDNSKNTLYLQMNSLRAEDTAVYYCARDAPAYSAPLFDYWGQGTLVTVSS VL: QSVLTQPPSASGTPGQRVTISCSGSSSNIGNNAVNWYQQLPGTAPKLLIYYDKNRPSGVPDRFSGSKSGTSASLAISGLRSEDEADYYCAAWDRSLSGYVFGGGTKLTVL
Solution: 2.82e+06
